What % Enzyme Inhibition Tyrosinase was measured for each of the following?
Tested on: Tyrosinase
EXPERIMENT_DESCRIPTION: Tyrosinase inhibition assay (L-DOPA substrate)
Format: biochemical
TEST_PARAMETERS: 10 μM compounds dissolved in DMSO
Marks after values point to notes of the source that are not given here.

Consider the worked cases shown below.
[[record]]
smiles_repr = "O=C1/C(=C(O)/C=C/c2ccccc2)CCC/C1=C\\c1ccccc1"
recorded_value = "46.1 ^i %"

[[record]]
smiles_repr = "O=C1/C(=C(O)/C=C/c2ccccc2)CC/C1=C\\c1ccccc1"
recorded_value = "70.85 ^c %"


Quick batch: % Enzyme Inhibition Tyrosinase for everything below.
1. Cc1ccc(/C=C/C(O)=C2\CCC/C(=C\c3ccc(C)cc3)C2=O)cc1
2. O=C1/C(=C(O)/C=C/c2ccc([N+](=O)[O-])cc2)CC/C1=C\c1ccc([N+](=O)[O-])cc1
3. COc1cc(/C=C/C(O)=C2\CCC/C(=C\c3ccc(O)c(OC)c3)C2=O)ccc1O

59.44 ^fg %
59.22 ^fg %
56.84 ^h %

Param item = `Cc1ccc(/C=C/C(O)=C2\CC/C(=C\c3ccc(C)cc3)C2=O)cc1` ; retrieve measured % Enzyme Inhibition Tyrosinase. 67.18 ^d %

---

What % Enzyme Inhibition ACE was measured for each of the following?
System: angiotensin converting enzyme (ACE)
EXPERIMENT_DESCRIPTION: Angiotensin converting enzyme (ACE) inhibition assay
Assay type: biochemical
TEST_PARAMETERS: 10 μM compounds dissolved in DMSO
Marks after values point to notes of the source that are not given here.

[[record]]
smiles_repr = "O=C1/C(=C(O)/C=C/c2ccccc2)CC/C1=C\\c1ccccc1"
recorded_value = "51.96 ^ef %"

[[record]]
smiles_repr = "O=C1/C(=C(O)/C=C/c2ccc(O)cc2)CC/C1=C\\c1ccc(O)cc1"
recorded_value = "90.55 ^ab %"

[[record]]
smiles_repr = "COc1ccc(/C=C/C(O)=C2\\CCC/C(=C\\c3ccc(OC)cc3)C2=O)cc1"
recorded_value = "4.01 ^g %"

[[record]]
smiles_repr = "COc1ccc(/C=C/C(O)=C2\\CC/C(=C\\c3ccc(OC)cc3)C2=O)cc1"
recorded_value = "67.42 ^cd %"

[[record]]
smiles_repr = "Cc1ccc(/C=C/C(O)=C2\\CC/C(=C\\c3ccc(C)cc3)C2=O)cc1"
recorded_value = "46.19 ^ef %"


Quick batch: % Enzyme Inhibition ACE for everything below.
1. Cc1ccc(/C=C/C(O)=C2\CCC/C(=C\c3ccc(C)cc3)C2=O)cc1
2. O=C1/C(=C(O)/C=C/c2ccc([N+](=O)[O-])cc2)CC/C1=C\c1ccc([N+](=O)[O-])cc1
3. COc1cc(/C=C/C(O)=C2\CCC/C(=C\c3ccc(O)c(OC)c3)C2=O)ccc1O
4. O=C1/C(=C(O)/C=C/c2ccc(Cl)cc2)CC/C1=C\c1ccc(Cl)cc1
5. O=C1/C(=C(O)/C=C/c2ccccc2)CCC/C1=C\c1ccccc1

["15.04 ^g %", "88.01 ^ab %", "84.59 ^ab %", "75.12 ^bc %", "19.69 ^g %"]

---

EXPERIMENT_DESCRIPTION: Oxygen radical absorbance capacity (ORAC) assay
TEST_PARAMETERS: 1 μM compounds dissolved in DMSO; Trolox equivalence; mean ± SD
Marks after values point to notes of the source that are not given here.
What ORAC antioxidant capacity was measured for each of the following?

[[record]]
smiles_repr = "O=C1/C(=C(O)/C=C/c2ccc(O)cc2)CC/C1=C\\c1ccc(O)cc1"
recorded_value = "0.49 ± 0.1 ^ef mmole TE/L"

[[record]]
smiles_repr = "O=C1/C(=C(O)/C=C/c2ccccc2)CCC/C1=C\\c1ccccc1"
recorded_value = "0.12 ± 0.01 ^g mmole TE/L"

[[record]]
smiles_repr = "COc1ccc(/C=C/C(O)=C2\\CCC/C(=C\\c3ccc(OC)cc3)C2=O)cc1"
recorded_value = "0.11 ± 0.01 ^g mmole TE/L"

[[record]]
smiles_repr = "Cc1ccc(/C=C/C(O)=C2\\CC/C(=C\\c3ccc(C)cc3)C2=O)cc1"
recorded_value = "1.25 ± 0.04 ^bc mmole TE/L"


Quick batch: ORAC antioxidant capacity for everything below.
1. Cc1ccc(/C=C/C(O)=C2\CCC/C(=C\c3ccc(C)cc3)C2=O)cc1
2. O=C1/C(=C(O)/C=C/c2ccccc2)CC/C1=C\c1ccccc1
3. O=C1/C(=C(O)/C=C/c2ccc([N+](=O)[O-])cc2)CC/C1=C\c1ccc([N+](=O)[O-])cc1

1. 0.84 ± 0.01 ^d mmole TE/L
2. 1.12 ± 0.1 ^c mmole TE/L
3. 0.84 ± 0.1 ^d mmole TE/L

Quick batch: ORAC antioxidant capacity for everything below.
1. COc1ccc(/C=C/C(O)=C2\CC/C(=C\c3ccc(OC)cc3)C2=O)cc1
2. COc1cc(/C=C/C(O)=C2\CCC/C(=C\c3ccc(O)c(OC)c3)C2=O)ccc1O
3. O=C1/C(=C(O)/C=C/c2ccc(Cl)cc2)CCC/C1=C\c1ccc(Cl)cc1
4. O=C1/C(=C(O)/C=C/c2ccc(Cl)cc2)CC/C1=C\c1ccc(Cl)cc1

1. 1.17 ± 0.1 ^b mmole TE/L
2. 0.50 ± 0.02 ^ef mmole TE/L
3. 0.49 ± 0.1 ^ef mmole TE/L
4. 1.30 ± 0.02 ^b mmole TE/L
